assay: Drug metabolism in beagle dog liver microsomes at 20 uM after 30 mins by LCMS/MS analysis
measure_name: metabolised at 0.5 h, 20 µM
Provide a numeric answer, followed by its unit.

Consider the molecule `CS(=O)(=O)c1ccc([C@@H](C[C@H]2CCC(=O)C2)C(=O)Nc2cnccn2)cc1Cl` and give its measured metabolised at 0.5 h, 20 µM.
9.6%

* * *

experiment: AUC (0 to infinity) in rat at 10 mg/kg, iv; type: ADME, organism-based; set-up: time infinity, dose 10 mg/kg, route intravenous; details: plasma
measure_name: AUC(0-inf) (ng·h/mL)
Respond with the bare value in ng·h/mL.

Consider the molecule `CS(=O)(=O)c1ccc([C@@H](C[C@H]2CCC(=O)C2)C(=O)Nc2cnccn2)cc1Cl` and give its measured AUC(0-inf).
1620

* * *

test: Cmax in rat at 30 mg/kg, po; assay type: ADME, organism-based; parameters: dose 30 mg/kg, route oral; conditions: in vivo
measure_name: Cmax (ng/mL)
Respond with the bare value in ng/mL.

Consider the molecule `CS(=O)(=O)c1ccc([C@@H](C[C@H]2CCC(=O)C2)C(=O)Nc2cnccn2)cc1Cl` and give its measured Cmax.
404

* * *

test: Volume of distribution at steady state in mouse at 10 mg/kg, iv; assay type: ADME, organism-based; parameters: dose 10 mg/kg, route intravenous; settings: in vivo, read-out: Vdss
measure_name: Vd (L/kg)
Respond with the bare value in L/kg.

Consider the molecule `CS(=O)(=O)c1ccc([C@@H](C[C@H]2CCC(=O)C2)C(=O)Nc2cnccn2)cc1Cl` and give its measured Vd.
3.33

* * *

test: Oral bioavailability in dog at 30 mg/kg; type: ADME, organism-based, Canis lupus familiaris; conditions: in vivo
measure_name: bioavailability

Consider the molecule CS(=O)(=O)c1ccc([C@@H](C[C@H]2CCC(=O)C2)C(=O)Nc2cnccn2)cc1Cl [PIRAGLIATIN] and give its measured bioavailability.
144%

* * *

test: Metabolic stability in CD1 mouse liver microsomes assessed as concentration of parent compound at 20 uM after 30 mins by LCMS/MS analysis
measure_name: remaining at 0.5 h, 20 µM
Provide a numeric answer, followed by its unit.

Consider the compound CS(=O)(=O)c1ccc([C@@H](C[C@H]2CCC(=O)C2)C(=O)Nc2cnccn2)cc1Cl [PIRAGLIATIN] and give its measured remaining at 0.5 h, 20 µM.
71.3%

* * *

# Drug metabolism per entry
test system: Liver microsomes; assay: Drug degradation in human liver microsomes assessed as formation of metabolite 2 level at 20 uM after 30 mins by LCMS/MS analysis; format: ADME, Microsome; conditions: 0.5 h
Respond with the bare value in ng/mL.

CS(=O)(=O)c1ccc(C(CC2CCCC2)C(=O)Nc2nc(CCO)cs2)cc1 (racemic) : 167.3

Consider the molecule `CS(=O)(=O)c1ccc([C@@H](CC2CCCC2)C(=O)Nc2nccs2)cc1` and give its measured Drug metabolism.
505.7

Consider the molecule CS(=O)(=O)c1ccc(C(CC2CCCC2)C(=O)Nc2ncc(Br)s2)cc1 (racemic) and give its measured Drug metabolism.
42.7

Consider the molecule CS(=O)(=O)c1ccc(C(CC2CCCC2)C(=O)Nc2ncc(Cl)s2)cc1 (racemic) and give its measured Drug metabolism.
48

Consider the molecule CS(=O)(=O)c1ccc(C(CC2CCCC2)C(=O)Nc2nc(CO)cs2)cc1 (racemic) and give its measured Drug metabolism.
88.7

* * *

assay: Cmax in mouse at 30 mg/kg, po; type: ADME, organism-based; parameters: dose 30 mg/kg, route oral; conditions: in vivo
measure_name: Cmax (ng/mL)
Respond with the bare value in ng/mL.

Consider the compound `CS(=O)(=O)c1ccc([C@@H](C[C@H]2CCC(=O)C2)C(=O)Nc2cnccn2)cc1Cl` and give its measured Cmax.
1050

* * *

assay: Metabolic stability in cynomolgus monkey liver microsomes assessed as concentration of parent compound at 20 uM after 30 mins by LCMS/MS analysis
measure_name: remaining at 0.5 h, 20 µM
Provide a numeric answer, followed by its unit.

Consider the compound `CS(=O)(=O)c1ccc([C@@H](C[C@H]2CCC(=O)C2)C(=O)Nc2cnccn2)cc1Cl` and give its measured remaining at 0.5 h, 20 µM.
80.6%

* * *

experiment: Cmax in rat at 60 mg/kg, po; assay type: ADME, organism-based; design: dose 60 mg/kg, route oral; conditions: in vivo
measure_name: Cmax (ng/mL)
Respond with the bare value in ng/mL.

Consider the compound CS(=O)(=O)c1ccc([C@@H](C[C@H]2CCC(=O)C2)C(=O)Nc2cnccn2)cc1Cl [PIRAGLIATIN] and give its measured Cmax.
2240

* * *

test: Plasma protein binding in rat; format: ADME, cell-free; details: read-out: PPB
measure_name: fraction unbound
Give only the figure.

Consider the compound `CS(=O)(=O)c1ccc([C@@H](C[C@H]2CCC(=O)C2)C(=O)Nc2cnccn2)cc1Cl` and give its measured fraction unbound.
0.5

* * *

assay: Metabolic stability in Beagle dog liver microsomes assessed as concentration of parent compound at 20 uM after 30 mins by LCMS/MS analysis
measure_name: remaining at 0.5 h, 20 µM

Consider the molecule `CS(=O)(=O)c1ccc([C@@H](C[C@H]2CCC(=O)C2)C(=O)Nc2cnccn2)cc1Cl` and give its measured remaining at 0.5 h, 20 µM.
90.4%

* * *

assay: Metabolic stability in Sprague-Dawley rat liver microsomes assessed as concentration of parent compound at 20 uM after 30 mins by LCMS/MS analysis
measure_name: remaining at 0.5 h, 20 µM (%)
Respond with the bare value in %.

Consider the compound `CS(=O)(=O)c1ccc([C@@H](C[C@H]2CCC(=O)C2)C(=O)Nc2cnccn2)cc1Cl` and give its measured remaining at 0.5 h, 20 µM.
78.3

* * *

test: Oral bioavailability in rat at 30 mg/kg; format: ADME, organism-based; settings: in vivo
measure_name: bioavailability
Provide a numeric answer, followed by its unit.

Consider the molecule `CS(=O)(=O)c1ccc([C@@H](C[C@H]2CCC(=O)C2)C(=O)Nc2cnccn2)cc1Cl` and give its measured bioavailability.
39%

* * *

assay: Plasma protein binding in human; assay type: ADME, cell-free; details: read-out: PPB
measure_name: fraction unbound
Give only the figure.

Consider the molecule `CS(=O)(=O)c1ccc([C@@H](C[C@H]2CCC(=O)C2)C(=O)Nc2cnccn2)cc1Cl` and give its measured fraction unbound.
0.5

* * *

test: Cmax in monkey at 5 mg/kg, po; assay type: ADME, organism-based, Macaca mulatta; design: dose 5 mg/kg, route oral; details: rhesus monkey, in vivo
measure_name: Cmax
Provide a numeric answer, followed by its unit.

Consider the molecule `CS(=O)(=O)c1ccc([C@@H](C[C@H]2CCC(=O)C2)C(=O)Nc2cnccn2)cc1Cl` and give its measured Cmax.
254 ng/mL

* * *

assay: AUC (0 to infinity) in dog at 30 mg/kg, po; format: ADME, organism-based, Canis lupus familiaris; design: time infinity, dose 30 mg/kg, route oral; conditions: plasma
measure_name: AUC(0-inf) (ng·h/mL)
Respond with the bare value in ng·h/mL.

Consider the molecule `CS(=O)(=O)c1ccc([C@@H](C[C@H]2CCC(=O)C2)C(=O)Nc2cnccn2)cc1Cl` and give its measured AUC(0-inf).
38000

* * *

experiment: Oral bioavailability in mouse at 60 mg/kg; assay type: ADME, organism-based; conditions: in vivo
measure_name: bioavailability
Provide a numeric answer, followed by its unit.

Consider the compound `CS(=O)(=O)c1ccc([C@@H](C[C@H]2CCC(=O)C2)C(=O)Nc2cnccn2)cc1Cl` and give its measured bioavailability.
65%

* * *

assay: Cmax in mouse at 10 mg/kg, iv; format: ADME, organism-based; design: dose 10 mg/kg, route intravenous; details: in vivo
measure_name: Cmax (ng/mL)
Respond with the bare value in ng/mL.

Consider the compound `CS(=O)(=O)c1ccc([C@@H](C[C@H]2CCC(=O)C2)C(=O)Nc2cnccn2)cc1Cl` and give its measured Cmax.
6460

* * *

experiment: Volume of distribution at steady state in monkey at 5 mg/kg, iv; format: ADME, organism-based, Macaca mulatta; set-up: dose 5 mg/kg, route intravenous; conditions: rhesus monkey, in vivo, read-out: Vdss
measure_name: Vd (L/kg)
Respond with the bare value in L/kg.

Consider the compound `CS(=O)(=O)c1ccc([C@@H](C[C@H]2CCC(=O)C2)C(=O)Nc2cnccn2)cc1Cl` and give its measured Vd.
2.87

* * *

test: Cmax in rat at 10 mg/kg, iv; format: ADME, organism-based; parameters: dose 10 mg/kg, route intravenous; conditions: in vivo
measure_name: Cmax (ng/mL)
Respond with the bare value in ng/mL.

Consider the compound `CS(=O)(=O)c1ccc([C@@H](C[C@H]2CCC(=O)C2)C(=O)Nc2cnccn2)cc1Cl` and give its measured Cmax.
4390

* * *

assay: Drug metabolism in Sprague-Dawley rat liver microsomes at 20 uM after 30 mins by LCMS/MS analysis
measure_name: metabolised at 0.5 h, 20 µM

Consider the compound `CS(=O)(=O)c1ccc([C@@H](C[C@H]2CCC(=O)C2)C(=O)Nc2cnccn2)cc1Cl` and give its measured metabolised at 0.5 h, 20 µM.
21.7%
